target_under_test: human PR-B (Homo sapiens, UniProt P06401)
Construct: expressed in transfected cells; host or cells: CV-1 cells (African green monkey kidney fibroblasts), transient transfection
Sequence (P06401 whole entry): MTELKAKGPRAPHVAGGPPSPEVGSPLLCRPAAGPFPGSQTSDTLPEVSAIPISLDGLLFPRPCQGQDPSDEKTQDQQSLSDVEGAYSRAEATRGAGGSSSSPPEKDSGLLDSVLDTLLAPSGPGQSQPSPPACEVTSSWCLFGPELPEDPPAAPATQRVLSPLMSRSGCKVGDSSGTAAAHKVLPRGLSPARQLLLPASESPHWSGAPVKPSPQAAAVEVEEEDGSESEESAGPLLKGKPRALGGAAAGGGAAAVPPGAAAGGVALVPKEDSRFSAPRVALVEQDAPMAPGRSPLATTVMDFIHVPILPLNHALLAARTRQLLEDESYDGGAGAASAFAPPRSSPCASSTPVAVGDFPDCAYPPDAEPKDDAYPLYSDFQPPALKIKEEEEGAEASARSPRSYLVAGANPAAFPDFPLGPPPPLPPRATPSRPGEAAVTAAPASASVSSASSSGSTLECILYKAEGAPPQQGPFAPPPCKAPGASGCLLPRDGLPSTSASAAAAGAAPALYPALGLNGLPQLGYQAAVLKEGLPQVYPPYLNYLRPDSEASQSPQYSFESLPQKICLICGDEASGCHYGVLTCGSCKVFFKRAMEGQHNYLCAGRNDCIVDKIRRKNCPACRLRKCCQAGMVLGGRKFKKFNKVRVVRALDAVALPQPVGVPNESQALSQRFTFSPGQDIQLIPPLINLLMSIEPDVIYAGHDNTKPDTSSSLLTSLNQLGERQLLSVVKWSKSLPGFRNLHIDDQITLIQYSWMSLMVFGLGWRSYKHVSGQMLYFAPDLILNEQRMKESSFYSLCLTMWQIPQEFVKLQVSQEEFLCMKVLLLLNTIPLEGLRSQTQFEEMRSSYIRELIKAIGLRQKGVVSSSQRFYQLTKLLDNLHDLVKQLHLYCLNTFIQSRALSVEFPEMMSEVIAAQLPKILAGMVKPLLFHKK
procedure_text: Co-transfection assay, PR agonist activity;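 further: CV-1 cells (African green monkey kidney) co-transfected with receptor plasmid and hormone-responsive firefly luciferase reporter, agonism read as compound-dependent rise in luciferase signal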
Type: cell-based
particulars: CV-1, read-out: PR Agonist CV-1 Cells Efficacy (%)
The entries below are paired with their reported Emax.

Below, 3 compounds whose answers are already recorded.
Query: Using the record for `CC1(C)C=Cc2c(ccc3c2/C(=C/c2ccccc2)Oc2ccc(Cl)cc2-3)N1` , report its Emax.
Response: 183%

Query: What do you get for `CC1=CC(C)(C)Nc2ccc3c(c21)/C(=C/c1ccccc1F)Oc1ccccc1-3` ?
Response: 114%

Query: Thanks! And CC1=CC(C)(C)Nc2ccc3c(c21)C(c1cccc(C(F)(F)F)c1)Oc1ccccc1-3 (racemic) ?
Response: 89%

API: the following record is the query input.
Query: State the recorded Emax for this entry: CC1CC(C)(C)Nc2ccc(-c3cc(F)cc(C#N)c3)cc21 (racemic)
Response: < 20%
